- MEASURED_ON: Metallo-beta-lactamase type 2 (Klebsiella pneumoniae)
- Sequence (C7C422 whole entry): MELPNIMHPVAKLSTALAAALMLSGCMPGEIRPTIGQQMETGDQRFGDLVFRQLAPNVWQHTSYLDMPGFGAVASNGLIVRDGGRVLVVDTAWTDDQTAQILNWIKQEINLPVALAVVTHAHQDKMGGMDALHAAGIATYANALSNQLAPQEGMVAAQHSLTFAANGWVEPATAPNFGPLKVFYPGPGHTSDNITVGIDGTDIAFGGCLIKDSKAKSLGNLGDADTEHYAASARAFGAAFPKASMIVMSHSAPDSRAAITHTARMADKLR
- TEST: Inhibition of his6-tagged NDM-1 (unknown origin) expressed in Escherichia coli BL21-DE3 incubated for 16 hrs
QUANTITY_NAME: pIC50
Please note pIC50 is a logarithmic value: minus log10 of concentration in mol/L. Answer with that number alone.

Look up pIC50: SC[C@H]1SC[C@@H]2Nc3ccccc3N21
6.11
